Target: human Factor Xa (Homo sapiens, UniProt P00742)
Construct: containing human Factor Xa (final conc. Of 0.0003 U·ml-1)
Sequence (P00742 235-488 limits assumed): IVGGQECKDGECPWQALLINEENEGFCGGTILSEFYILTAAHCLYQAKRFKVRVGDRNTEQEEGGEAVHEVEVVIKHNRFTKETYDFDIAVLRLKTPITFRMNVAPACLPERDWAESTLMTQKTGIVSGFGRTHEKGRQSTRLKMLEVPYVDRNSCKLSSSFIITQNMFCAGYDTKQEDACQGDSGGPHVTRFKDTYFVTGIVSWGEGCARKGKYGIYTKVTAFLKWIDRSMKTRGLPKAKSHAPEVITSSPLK
Sequence (P00742 41-179 partner limits assumed): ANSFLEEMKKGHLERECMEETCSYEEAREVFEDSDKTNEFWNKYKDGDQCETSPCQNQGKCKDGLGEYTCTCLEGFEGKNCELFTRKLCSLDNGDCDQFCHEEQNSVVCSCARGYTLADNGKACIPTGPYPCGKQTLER
Assay: In vitro fluorogenic assay for inhibition of Factor Xa
Type: biochemical
Details: Ki value
pKi: −log10 of the molar value.
List of pKi values.

Guide cases for pKi, answers given:
COCCN(C)C(=O)c1ccc(N2CCC(NS(=O)(=O)/C=C(\C)c3ccc(Cl)s3)C2=O)c(F)c1 (centres unmarked) = > 6.00
CNCCN(C)C(=O)c1ccc(N2CCC(NS(=O)(=O)/C=C(\C)c3ccc(Cl)s3)C2=O)c(F)c1 (centres unmarked) = > 7.00
C/C(=C\S(=O)(=O)NC1CCN(c2ccc(C(=O)N(C)Cc3ccccn3)cc2F)C1=O)c1ccc(Cl)s1 (centres unmarked) = > 7.00

Problem: Name the recorded pKi for C/C(=C\S(=O)(=O)NC1CCN(c2ccc(C(=O)N(C)CCc3cccnc3)cc2F)C1=O)c1ccc(Cl)s1 (centres unmarked) .
Solution: > 7.00

Problem: Name the recorded pKi for C/C(=C\S(=O)(=O)NC1CCN(c2ccc(C(=O)N(C)CCc3c[nH]cn3)cc2F)C1=O)c1ccc(Cl)s1 (centres unmarked) .
Solution: > 7.00

All values here come from patent US20070203206A1.
